The measurements presented in this section are drawn from ChEMBL document CHEMBL3885861.

organism: Rattus norvegicus; experiment: Open TG-GATES - Regimen: Daily Repeat; assay type: toxicity, organism-based, Sprague-Dawley; design: regimen Daily Repeat, gender Male, age 6 weeks; settings: in vivo, po, 300 mg/kg, […], tissue Blood, route gavage, dose level Middle, time 7 day
Below, each of the compounds is paired with its reported Hb value.
endpoint label: Hb (g/dL)

{"columns": ["smiles code", "result"],
 "data": [
  ["CCOc1ccc(NC(C)=O)cc1", 13.3],
  ["Cc1nnc2n1-c1ccc(Cl)cc1C(c1ccccc1Cl)=NC2", 13.6],
  ["CNC(=C[N+](=O)[O-])NCCSCc1ccc(CN(C)C)o1", 14.1],
  ["O=C(OC[C@H]1O[C@@H](OC(=O)c2cc(O)c(O)c(OC(=O)c3cc(O)c(O)c(O)c3)c2)[C@H](OC(=O)c2cc(O)c(O)c(OC(=O)c3cc(O)c(O)c(O)c3)c2)[C@@H](OC(=O)c2cc(O)c(O)c(OC(=O)c3cc(O)c(O)c(O)c3)c2)[C@@H]1OC(=O)c1cc(O)c(O)c(OC(=O)c2cc(O)c(O)c(O)c2)c1)c1cc(O)c(O)c(OC(=O)c2cc(O)c(O)c(O)c2)c1", 13.4],
  ["COC(=O)C1=C(C)NC(C)=C(C(=O)OC)C1c1ccccc1[N+](=O)[O-]", 13.9],
  ["CN/C(=N/CCSCc1nc[nH]c1C)NC#N", 13.6]
]}

---

organism: Rattus norvegicus; assay: Open TG-GATES - Regimen: Single; assay type: toxicity, organism-based, Sprague-Dawley; design: regimen Single, gender Male, age 6 weeks; conditions: in vivo, po, 0 mg/kg, 9 h, tissue Blood, route gavage, dose level Control
Below, each of the compounds is paired with its reported Ht value.
endpoint label: Ht (%)

{"columns": ["compound", "output unit", "result"],
 "data": [
  ["NC1=NC(=O)C(c2ccccc2)O1 (stereo unspecified)", "%", 37.5],
  ["COC(=O)C1=C(C)NC(C)=C(C(=O)OC)C1c1ccccc1[N+](=O)[O-]", "%", 40.6],
  ["CN(C)CCC(c1ccc(Cl)cc1)c1ccccn1 (stereo unspecified)", "%", 39.4],
  ["CN1C(=O)CCS(=O)(=O)C1c1ccc(Cl)cc1 (stereo unspecified)", "%", 39.9],
  ["CN/C(=N/CCSCc1nc[nH]c1C)NC#N", "%", 37.9],
  ["Cc1nnc2n1-c1ccc(Cl)cc1C(c1ccccc1Cl)=NC2", "%", 40.4]
]}

---

organism: Rattus norvegicus; assay: Open TG-GATES - Regimen: Single; assay type: toxicity, organism-based, Sprague-Dawley; design: regimen Single, gender Male, age 6 weeks; conditions: in vivo, po, 1000 mg/kg, 3 h, tissue Plasma, route gavage, dose level High
Below, each of the molecules is paired with its reported gamma-GTP value.
endpoint label: gamma-GTP (IU/L)

{"columns": ["smiles code", "output unit", "result"],
 "data": [
  ["Cc1nnc2n1-c1ccc(Cl)cc1C(c1ccccc1Cl)=NC2", "IU/L", 1],
  ["O=C(OC[C@H]1O[C@@H](OC(=O)c2cc(O)c(O)c(OC(=O)c3cc(O)c(O)c(O)c3)c2)[C@H](OC(=O)c2cc(O)c(O)c(OC(=O)c3cc(O)c(O)c(O)c3)c2)[C@@H](OC(=O)c2cc(O)c(O)c(OC(=O)c3cc(O)c(O)c(O)c3)c2)[C@@H]1OC(=O)c1cc(O)c(O)c(OC(=O)c2cc(O)c(O)c(O)c2)c1)c1cc(O)c(O)c(OC(=O)c2cc(O)c(O)c(O)c2)c1", "IU/L", 1.2],
  ["CN/C(=N/CCSCc1nc[nH]c1C)NC#N", "IU/L", 1],
  ["COC(=O)C1=C(C)NC(C)=C(C(=O)OC)C1c1ccccc1[N+](=O)[O-]", "IU/L", 1.6],
  ["CNC(=C[N+](=O)[O-])NCCSCc1ccc(CN(C)C)o1", "IU/L", 1.2]
]}

---

species on record: Rattus norvegicus; test: Open TG-GATES - Regimen: Single; assay type: toxicity, organism-based, Sprague-Dawley; design: regimen Single, gender Male, age 6 weeks; details: in vivo, po, 0 mg/kg, 9 h, tissue Blood, route gavage, dose level Control

{"columns": ["compound", "output unit", "RBC"],
 "data": [
  ["Cc1nnc2n1-c1ccc(Cl)cc1C(c1ccccc1Cl)=NC2 [TRIAZOLAM]", "x10_4/ul", 631.8],
  ["CC(C)NNC(=O)c1ccncc1 [IPRONIAZID]", "x10_4/ul", 605.5],
  ["NC1=NC(=O)C(c2ccccc2)O1 (stereo not given) [PEMOLINE]", "x10_4/ul", 598.8],
  ["CN/C(=N/CCSCc1nc[nH]c1C)NC#N [CIMETIDINE]", "x10_4/ul", 612],
  ["CCOc1ccc(NC(C)=O)cc1 [PHENACETIN]", "x10_4/ul", 611.4],
  ["CS(=O)(=O)O.Cc1ccc(NC(=O)c2ccc(CN3CCN(C)CC3)cc2)cc1Nc1nccc(-c2cccnc2)n1 [IMATINIB MESYLATE]", "x10_4/ul", 617],
  ["CN(C)CCC(c1ccc(Cl)cc1)c1ccccn1 (stereo not given) [CHLORPHENIRAMINE]", "x10_4/ul", 587.6],
  ["Nc1c2c(nc3ccccc13)CCCC2 [TACRINE]", "x10_4/ul", 624.8],
  ["Brc1ccccc1 [BROMOBENZENE]", "x10_4/ul", 603],
  ["COC(=O)C1=C(C)NC(C)=C(C(=O)OC)C1c1ccccc1[N+](=O)[O-] [NIFEDIPINE]", "x10_4/ul", 626.4]
]}

---

species: Rattus norvegicus; test: Open TG-GATES - Regimen: Single; type: toxicity, organism-based, Sprague-Dawley; design: regimen Single, gender Male, age 6 weeks; conditions: in vivo, po, 1000 mg/kg, 6 h, tissue Blood, route gavage, dose level High

{"columns": ["smiles code", "PT [s]"],
 "data": [
  ["Cc1nnc2n1-c1ccc(Cl)cc1C(c1ccccc1Cl)=NC2", 13.5],
  ["CN/C(=N/CCSCc1nc[nH]c1C)NC#N", 13.5],
  ["O=C(OC[C@H]1O[C@@H](OC(=O)c2cc(O)c(O)c(OC(=O)c3cc(O)c(O)c(O)c3)c2)[C@H](OC(=O)c2cc(O)c(O)c(OC(=O)c3cc(O)c(O)c(O)c3)c2)[C@@H](OC(=O)c2cc(O)c(O)c(OC(=O)c3cc(O)c(O)c(O)c3)c2)[C@@H]1OC(=O)c1cc(O)c(O)c(OC(=O)c2cc(O)c(O)c(O)c2)c1)c1cc(O)c(O)c(OC(=O)c2cc(O)c(O)c(O)c2)c1", 12],
  ["COC(=O)C1=C(C)NC(C)=C(C(=O)OC)C1c1ccccc1[N+](=O)[O-]", 14.9],
  ["CNC(=C[N+](=O)[O-])NCCSCc1ccc(CN(C)C)o1", 12.7]
]}

---

species on record: Rattus norvegicus; assay: Open TG-GATES - Regimen: Single; type: toxicity, organism-based, Sprague-Dawley; parameters: regimen Single, gender Male, age 6 weeks; details: in vivo, po, 1000 mg/kg, 9 h, tissue Blood, route gavage, dose level High
Below, each of the molecules is paired with its reported RBC value.

{"columns": ["smiles code", "RBC / x10_4/ul"],
 "data": [
  ["CN/C(=N/CCSCc1nc[nH]c1C)NC#N", 594.2],
  ["O=C(OC[C@H]1O[C@@H](OC(=O)c2cc(O)c(O)c(OC(=O)c3cc(O)c(O)c(O)c3)c2)[C@H](OC(=O)c2cc(O)c(O)c(OC(=O)c3cc(O)c(O)c(O)c3)c2)[C@@H](OC(=O)c2cc(O)c(O)c(OC(=O)c3cc(O)c(O)c(O)c3)c2)[C@@H]1OC(=O)c1cc(O)c(O)c(OC(=O)c2cc(O)c(O)c(O)c2)c1)c1cc(O)c(O)c(OC(=O)c2cc(O)c(O)c(O)c2)c1", 589.2],
  ["CNC(=C[N+](=O)[O-])NCCSCc1ccc(CN(C)C)o1", 607.2],
  ["COC(=O)C1=C(C)NC(C)=C(C(=O)OC)C1c1ccccc1[N+](=O)[O-]", 637],
  ["Cc1nnc2n1-c1ccc(Cl)cc1C(c1ccccc1Cl)=NC2", 635.4]
]}

---

Below, each of the compounds is paired with its reported AST value.
species on record: Rattus norvegicus; assay: Open TG-GATES - Regimen: Single; assay type: toxicity, organism-based, Sprague-Dawley; design: regimen Single, gender Male, age 6 weeks; conditions: in vivo, po, 0 mg/kg, 9 h, tissue Plasma, route gavage, dose level Control
endpoint label: AST (IU/L)

{"columns": ["compound", "result"],
 "data": [
  ["Brc1ccccc1", 70.2],
  ["CCOc1ccc(NC(C)=O)cc1", 75.4],
  ["CC(C)NNC(=O)c1ccncc1", 76.5],
  ["CN/C(=N/CCSCc1nc[nH]c1C)NC#N", 66.2],
  ["CCCc1cc(=O)[nH]c(=S)[nH]1", 61.8],
  ["O=C(OC[C@H]1O[C@@H](OC(=O)c2cc(O)c(O)c(OC(=O)c3cc(O)c(O)c(O)c3)c2)[C@H](OC(=O)c2cc(O)c(O)c(OC(=O)c3cc(O)c(O)c(O)c3)c2)[C@@H](OC(=O)c2cc(O)c(O)c(OC(=O)c3cc(O)c(O)c(O)c3)c2)[C@@H]1OC(=O)c1cc(O)c(O)c(OC(=O)c2cc(O)c(O)c(O)c2)c1)c1cc(O)c(O)c(OC(=O)c2cc(O)c(O)c(O)c2)c1", 60],
  ["CNC(=C[N+](=O)[O-])NCCSCc1ccc(CN(C)C)o1", 62.8],
  ["Cc1nnc2n1-c1ccc(Cl)cc1C(c1ccccc1Cl)=NC2", 75],
  ["CS(=O)(=O)O.Cc1ccc(NC(=O)c2ccc(CN3CCN(C)CC3)cc2)cc1Nc1nccc(-c2cccnc2)n1 [IMATINIB MESYLATE]", 76.6]
]}
